Tested on: Triticum aestivum (TRZAS)
Format: in vivo
PARTICULARS: crop plant compatibility, 80 g/ha, effect vs untreated controls
OBSERVATION_TYPE: Post-emergence action against TRZAS in % (%)
// return numeric value only (unit: %, not printed)

O=C(O)COc1nn(-c2ccnc(Cl)c2)c(-c2ccc(F)nc2)c1Br; 0
CCOC(=O)COc1nn(-c2ccccn2)c(-c2ccc(F)nc2)c1C1CC1(F)F (stereo not drawn); 0
COC(=O)[C@H](C)NC(=O)COc1nn(-c2ccnc(Cl)c2)c(-c2ccc(F)nc2)c1Br; 0
Cc1ncccc1-n1nc(OCC(=O)O)c(Cl)c1-c1cncc(F)c1; 20

// next entry
Query :: Let me know recorded Post-emergence action against TRZAS in % for COc1cccnc1-n1nc(OCC(=O)O)c(Cl)c1-c1ccc(F)nc1 , thanks.
Result :: 0

====

This section presents compounds with their documented Pre-emergence action against VIOTR in % values.
System: Viola tricolor (VIOTR)
TEST: Pre-emergence herbicidal action against VIOTR
Format: in vivo
PARTICULARS: dosage 80 g/ha
Just the number in %, nothing appended.

CCOC(=O)COc1nn(-c2nc(F)ccc2F)c(-c2ccc(F)nc2)c1Cl [Example I-315]; 90
O=C(O)COc1nn(-c2ncccc2C(F)(F)F)c(-c2cncc(F)c2)c1Br [Example I-230]; 80
COC(=O)COc1nn(-c2nc(F)ccc2F)c(-c2cncc(F)c2)c1Br [Example I-210]; 90
CC(NC(=O)[C@@H](C)Oc1nn(-c2ccccn2)c(-c2ccc(F)nc2)c1Cl)C(=O)O (some centres unmarked) [Example I-350]; 100
COC(=O)[C@H](C)COC(=O)COc1nn(-c2ccccn2)c(-c2cncc(F)c2)c1Cl [Example I-192]; 80
CCOC(=O)[C@@H](C)Oc1nn(-c2ncccc2F)c(-c2ccc(F)nc2)c1Cl [Example I-32]; 100

Query :: For the compound CCOC(=O)COc1nn(-c2nc(F)ccc2F)c(-c2cncc(F)c2)c1Cl [Example I-163] , give its measured Pre-emergence action against VIOTR in % value.
Result :: 90

Query :: Check the records and state Pre-emergence action against VIOTR in % for O=C(COc1nn(-c2ncccc2F)c(-c2ccc(F)nc2)c1Br)OCc1ccccn1 [Example I-46]
Result :: 90

====

Tested on: Verconica persica (VERPE)
TEST: Post-emergence herbicidal action against VERPE
Format: in vivo
PARTICULARS: dosage 80 g/ha
Recorded Post-emergence action against VERPE in %, one value per entry.
Unit % implied. Number only.

// below: answered molecules
CCOC(=O)COc1nn(-c2ncccc2F)c(-c2cncc(F)c2)c1C1CC1 [Example I-174]; 80
COC(=O)COc1nn(-c2ncccc2F)c(-c2ccc(F)nc2)c1Cl [Example I-304]; 80
C[C@@H](Oc1nn(-c2ncccc2F)c(-c2ccc(F)nc2)c1I)C(=O)O [Example I-343]; 80

Query :: Tell me its Post-emergence action against VERPE in % given C[C@@H](Oc1nn(-c2ncccc2F)c(-c2ccc(F)nc2)c1Br)C(=O)OCc1ccccn1 [Example I-52] as the entry.
Result :: 90

====

Test system: Zea mays (ZEAMX)
Assay type: in vivo
PARTICULARS: pre-emergence, 80 g/ha, crop plant compatibility, in comparison to untreated controls
OBSERVATION_TYPE: Pre-emergence action against ZEAMX in %
Don't forget the unit after the number, please.

COC(=O)CNC(=O)COc1nn(-c2cccc(C)n2)c(-c2ccc(F)nc2)c1Br [Example I-357]; 20%
COC(=O)COc1nn(-c2ncccc2OC)c(-c2ccc(F)nc2)c1Cl [Example I-346]; 0%
C[C@@H](Oc1nn(-c2ncccc2F)c(-c2ccc(F)nc2)c1Br)C(=O)O [Example I-50]; 0%
Cc1cccc(-n2nc(OCC(=O)O)c(Br)c2-c2ccc(F)nc2)n1 [Example I-376]; 10%

Query :: Under Zea mays (ZEAMX): report Pre-emergence action against ZEAMX in % of COC(=O)C=CC(C)NC(=O)COc1nn(-c2ccccn2)c(-c2ccc(F)nc2)c1Br (centres unmarked) [Example I-345] .
Result :: 0%
